tested on: Mycobacterium tuberculosis; assay: Antimycobacterial activity against Mycobacterium tuberculosis H37Rv ATCC 27294 by agar dilution method; assay type: functional
Criterion: MIC strictly under 6 µg/mL. Met: class 1. Not met: class 0.

// known answers, use as guide
compound: O=C1CC2(CCCCC2)Oc2cc(OCC(O)CNc3ccccc3)ccc21 (stereo not drawn)
tgt: Mycobacterium tuberculosis
assigned category: class 0
--
compound: CC[C@@H](CO)NCCN[C@@H](CC)CO
tgt: Mycobacterium tuberculosis
assigned category: class 1
--
compound: CC(C)c1ccc(NCC(O)COc2ccc3c(c2)OC2(CCCCC2)CC3=O)cc1 (stereo not drawn)
tgt: Mycobacterium tuberculosis
assigned category: class 0
--
compound: CC(C)c1ccc(NCC(O)COc2ccc3c(c2)OC2(CCCC2)CC3=O)cc1 (stereo not drawn)
tgt: Mycobacterium tuberculosis
assigned category: class 0
--
compound: Cc1ccccc1NCC(O)COc1ccc2c(c1)OC1(CCCCC1)CC2=O (stereo not drawn)
tgt: Mycobacterium tuberculosis
assigned category: class 0

Prompt: Confirm or reject: MIC of COc1ccc(CNCC(O)COc2ccc3c(c2)OC2(CCCC2)CC3=O)cc1 (stereo not drawn) lies strictly below 6 µg/mL
Response: class 0

Prompt: Confirm or reject: MIC of CC(C)c1ccccc1NCC(O)COc1ccc2c(c1)OC1(CCCC1)CC2=O (stereo not drawn) lies strictly below 6 µg/mL
Response: class 0

Prompt: Confirm or reject: MIC of O=C1CC2(CCCC2)Oc2cc(OCC(O)CNc3ccc([N+](=O)[O-])cc3O)ccc21 (stereo not drawn) lies strictly below 6 µg/mL
Response: class 0
